Recorded values, source PubChem BioAssay AID1851.

# experimentalSystem: Cytochrome P450 2D6 (Homo sapiens)
# assay: Cytochrome panel assay with activity outcomes
# testParameters: recombinant CYP, pro-luciferin dealkylation, luminescence, p450-cyp2d6; series mostly up to 57.1 µM
Hit rate of the full screen: of about 16,000 compounds, about 2,600 (16%) were called active. Not shown: some 20% with an inconclusive outcome. The call rests on the fitted dose curve; in most records, active means well fitted curve in the direction sought with a large enough effect; inconclusive means small, poorly fitted or top-dose-only effect, or effect the other way; inactive means no such curve, though single readings can be large or run the other way. A selection follows.
Pick one: YES for active, NO for inactive

# example entries with known answers
CCn1c(-c2ccccc2Cl)nn(CC(=O)Nc2ccccc2OC)c1=S; NO
COc1ccccc1NC(=O)CCN1C(=O)C2CC=C(Cl)CC2C1=O (stereo unspecified); NO

Query: Recorded call for COc1cc(NC(=O)c2ccccc2)c(OC)cc1NC(=O)CN1CCN(c2ccccn2)CC1 ?
Result: NO

Query: Recorded call for CC1(C)Cc2c(sc3c2C(=O)N(c2ccccc2)C2=NCCN23)CS1 ?
Result: NO

Query: Recorded call for CCOc1ccccc1NC(=O)CN1CCC(NC(=O)c2ccccc2)CC1 ?
Result: YES

Query: Recorded call for O=C(Nc1cccnc1Cl)C1c2ccccc2Oc2ccccc21 ?
Result: NO

* * *

# experimentalSystem: Cytochrome P450 2D6 (Homo sapiens) (UniProt P10635)
# Sequence (P10635 whole entry, looked up): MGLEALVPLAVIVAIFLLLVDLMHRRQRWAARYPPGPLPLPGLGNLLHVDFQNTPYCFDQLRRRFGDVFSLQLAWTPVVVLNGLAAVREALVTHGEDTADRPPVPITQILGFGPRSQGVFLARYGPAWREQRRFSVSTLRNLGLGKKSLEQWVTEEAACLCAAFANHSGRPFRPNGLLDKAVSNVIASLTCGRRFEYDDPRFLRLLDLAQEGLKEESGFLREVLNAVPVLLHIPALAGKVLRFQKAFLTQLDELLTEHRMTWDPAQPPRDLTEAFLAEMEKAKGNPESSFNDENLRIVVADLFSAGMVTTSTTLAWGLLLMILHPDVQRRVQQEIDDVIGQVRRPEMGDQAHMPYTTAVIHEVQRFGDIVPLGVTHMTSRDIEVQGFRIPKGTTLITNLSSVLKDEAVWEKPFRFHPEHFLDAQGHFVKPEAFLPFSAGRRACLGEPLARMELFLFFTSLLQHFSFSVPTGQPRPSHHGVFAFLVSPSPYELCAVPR
# assay: Cytochrome panel assay with activity outcomes
# testParameters: recombinant CYP, pro-luciferin dealkylation, luminescence, p450-cyp2d6; series mostly up to 57.1 µM
# Protocol: The P450 gene superfamily is involved in the metabolism and clearance of xenobiotics. This assay used various human CYP P450 isozymes to measure the dealkylation of various pro-luciferin substrates to luciferin. The luciferin is then measured by luminescence after the addition of a luciferase detection reagent. […] Inhibitors and some substrates limit the production of luciferin, and decrease measured luminescence. […] 8, Detection, 1 sec, ViewLux luminescent read […]
Screen size: about 16,000 compounds; about 2,600 (16%) were called active. Inconclusive results (about 20%) are left out. Only a sample is shown.
observationType: AC50

# example entries with known answers
O=C(c1cccc(F)c1)N1CCC2(CC1)CCN(c1cccc(-c3ccccc3)c1)CC2; inactive
O=C(Cc1ccccc1)N/N=C/C=C/c1cccc([N+](=O)[O-])c1; inactive
NC(N)=Nc1nc(CCN2C(=O)c3ccccc3C2=O)cs1; 15.8 µM (active)
O=C(NCc1ccccc1)C12CN(Cc3ccccc3)CC1C(c1cccc([N+](=O)[O-])c1)=NO2 (stereo not given); 5.01 µM (active)

Kindly review the next compound as well.
Query: Fill in: AC50 of CN(CCc1ccccn1)Cc1ccc(Cl)cc1Cl is ___
Result: 0.355 µM (active)

* * *

# experimentalSystem: Cytochrome P450 2D6 (Homo sapiens) (UniProt P10635)
# assay: Cytochrome panel assay with activity outcomes
# testParameters: recombinant CYP, pro-luciferin dealkylation, luminescence, p450-cyp2d6; series mostly up to 57.1 µM
In all, about 16,000 compounds went through this assay and about 2,600 (16%) were called active. Inconclusive results (about 20%) are left out. Calls come from the whole dose curve; as a rule, active = well fitted curve in the direction sought with a large enough effect; inconclusive = small, poorly fitted or top-dose-only effect, or effect the other way; inactive = no such curve, though single readings can be large or run the other way. The list is a sample of the results.
Pick one: active, inactive

# example entries with known answers
COc1ccc(OCc2nnc(SCC(=O)N3c4ccccc4Sc4ccc(Cl)cc43)o2)cc1; inactive
O=C(COc1ccc(Cl)cc1)N1CCN(Cc2ccc3c(c2)OCO3)CC1; active
COc1ccc(Oc2ncc3ncc(=O)n(C4CC4)c3n2)cc1; inactive
COc1ccc2c(c1)N(CC[C@H]1CCCCN1C)c1ccccc1S2; active
Cc1cc(-c2cc(-c3ccc(Cl)cc3)nc(N)c2C#N)co1; inactive

Please examine the following record next.
Query: Recorded call for O=C(CN1C(=O)c2cccc3cccc(c23)C1=O)N1CCCCCC1 ?
Result: inactive

* * *

# experimentalSystem: Cytochrome P450 2D6 (Homo sapiens)
# assay: Cytochrome panel assay with activity outcomes
# testParameters: recombinant CYP, pro-luciferin dealkylation, luminescence, p450-cyp2d6; series mostly up to 57.1 µM
Among all 16,000 compounds or so, about 2,600 (16%) were called active. Another 20% or so got no clear call; they are omitted. Calls come from the whole dose curve; as a rule, active = well fitted curve in the direction sought with a large enough effect; inconclusive = small, poorly fitted or top-dose-only effect, or effect the other way; inactive = no such curve, though single readings can be large or run the other way. A selection follows.
Pick one: Y (active), N (inactive)

# example entries with known answers
O=C(c1cc(C(F)(F)F)cc(C(F)(F)F)c1)N1CCC2(CCN(Cc3ccccc3)CC2)CC1; N
Cn1cc(-c2nc3cncnc3n(Cc3ccccc3Cl)c2=O)c2ccccc21; N
COc1ccc(S(=O)(=O)N2CC3CCCN3c3ccc(C(F)(F)F)cc32)cc1 (centres undefined); N
Cc1ccc2nc(NC(=O)COC(=O)CSc3nc(C)cc(C)n3)sc2c1; N
O=C1/C(=C\c2ccc(Br)o2)SC(=Nc2ccccc2)N1c1ccccc1; N
O=S(=O)(c1ccc(F)cc1)N1CCCC(CO)C1 (centres undefined); N

Query: Recorded call for O=S(=O)(c1ccc(F)cc1)N1CC2CCCN2c2ccc(C(F)(F)F)cc21 (centres undefined) ?
Result: N

Query: Recorded call for C[C@@H](NCc1cc(Br)cc2[nH]c(=O)c(=O)[nH]c12)P(=O)(O)O ?
Result: N

Query: Recorded call for CCOCC(=O)Nc1c(C(=O)Nc2ccccc2OC)oc2ccccc12 ?
Result: N

Query: Recorded call for N#Cc1ccccc1NC(=O)Nc1cccs1 ?
Result: N

Query: Recorded call for O=C(NC(NC(=S)Nc1cc(Cl)ccc1Cl)C(Cl)(Cl)Cl)c1ccco1 (centres undefined) ?
Result: Y

Query: Recorded call for O=C(C1CCN(S(=O)(=O)c2cccc3cccnc23)CC1)N1CCN(c2ccccn2)CC1 ?
Result: N

Query: Recorded call for COc1ccc(CNc2ccnc(-c3ccc4c(c3)OCO4)n2)c(OC)c1 ?
Result: Y

* * *

# experimentalSystem: Cytochrome P450 2D6 (Homo sapiens) (UniProt P10635)
# assay: Cytochrome panel assay with activity outcomes
# testParameters: recombinant CYP, pro-luciferin dealkylation, luminescence, p450-cyp2d6; series mostly up to 57.1 µM
In all, about 16,000 compounds went through this assay and about 2,600 (16%) were called active. Not shown: some 20% with an inconclusive outcome. The call rests on the fitted dose curve; in most records, active means well fitted curve in the direction sought with a large enough effect; inconclusive means small, poorly fitted or top-dose-only effect, or effect the other way; inactive means no such curve, though single readings can be large or run the other way. Not all results are given here.
Pick one: active, inactive

# example entries with known answers
COc1ccc(-c2nc3cnc(N(C)C)nc3n(Cc3cccs3)c2=O)cc1; inactive
Cc1ccccc1N1C(=O)c2cc(S(N)(=O)=O)c(Cl)cc2N[C@H]1C; inactive
COc1ccc(C(=O)O/N=C/c2ccc(S(=O)c3ccc(Cl)cc3)nc2)cc1 (stereo unspecified); inactive
COc1ccc(NC(=O)CC#N)cc1OC; inactive
NOCC(=O)O; inactive
Cc1cc(NC(=O)Nc2ccc(F)cc2)no1; inactive
CCCN1C[C@H](CSC)C[C@H]2c3cccc4[nH]cc(c34)C[C@@H]21; active
O=[N+]([O-])c1ccc(N2CCN(CCOc3nonc3-c3ccccc3)CC2)c(Cl)c1; active

Query: Recorded call for O=[N+]([O-])c1ccc(N2CCN(Cc3ccccc3)CC2)c(S(=O)(=O)N2CCOCC2)c1 ?
Result: inactive

Query: Recorded call for COc1ccc(C(=O)Nc2ccc(Cl)cc2C(=O)NCCN2CCOCC2)cc1 ?
Result: active

Query: Recorded call for CCC(=O)NC(=S)N1CCN(c2ccc([N+](=O)[O-])cc2Cl)CC1 ?
Result: inactive

* * *

# experimentalSystem: Cytochrome P450 2D6 (Homo sapiens) (UniProt P10635)
# assay: Cytochrome panel assay with activity outcomes
# testParameters: recombinant CYP, pro-luciferin dealkylation, luminescence, p450-cyp2d6; series mostly up to 57.1 µM
Hit rate of the full screen: of about 16,000 compounds, about 2,600 (16%) were called active. Roughly 20% stayed inconclusive and do not appear here. Calls come from the whole dose curve; as a rule, active = well fitted curve in the direction sought with a large enough effect; inconclusive = small, poorly fitted or top-dose-only effect, or effect the other way; inactive = no such curve, though single readings can be large or run the other way. A selection follows.
Pick one: YES for active, NO for inactive

# example entries with known answers
CCCC(=O)NNC(=O)CCC(=O)NCc1ccccc1; NO
CCN1CCN(C(=O)C2c3cc(OC)c(OC)cc3C(=O)N3CCc4ccccc4C23)CC1 (configuration not stated); NO
Nc1nnc(SCCOc2cccc(Br)c2)s1; YES

Query: Recorded call for O=S(=O)(N/N=C\c1ccc2c(c1)OCO2)c1ccc(Cl)cc1 ?
Result: YES

* * *

# experimentalSystem: Cytochrome P450 2D6 (Homo sapiens)
# assay: Cytochrome panel assay with activity outcomes
# testParameters: recombinant CYP, pro-luciferin dealkylation, luminescence, p450-cyp2d6; series mostly up to 57.1 µM
Out of some 16,000 compounds screened, about 2,600 (16%) were called active. Roughly 20% stayed inconclusive and do not appear here. The list is a sample of the results.
observationType: AC50

# example entries with known answers
N#CCCn1c(=O)c(-c2cccc(C#N)c2)nc2cnc(N3CCOCC3)nc21; inactive
Clc1ccc(-c2nnc(-c3ccccc3)c(N3CCSCC3)n2)cc1; inactive
O=C(COC(=O)c1cccnc1Nc1cccc(C(F)(F)F)c1)NCc1ccc2c(c1)OCO2; 1120 nM (active)
COc1ccc(OC)c2c(=S)c3ccccc3[nH]c12; inactive

Query: Under Cytochrome P450 2D6 (Homo sapiens): AC50 value of COc1ccc2c(c1)CCc1sc(NC(=O)c3ccc(C)cc3)nc1-2 ?
Result: inactive

Query: Under Cytochrome P450 2D6 (Homo sapiens): AC50 value of CN(C)C(=O)c1ccc(-c2cncnc2NCCN2CCOCC2)cc1 ?
Result: inactive

Query: Under Cytochrome P450 2D6 (Homo sapiens): AC50 value of CC(=O)c1cccc(NC=C2C(=O)OC3(CCCCC3)OC2=O)c1 ?
Result: inactive

Query: Under Cytochrome P450 2D6 (Homo sapiens): AC50 value of CC1(C)CC(=O)c2c(Cc3ccccc3)n[nH]c2C1 ?
Result: inactive

Query: Under Cytochrome P450 2D6 (Homo sapiens): AC50 value of COc1ccccc1-c1ccc2ncnc(N3CCOCC3)c2c1 ?
Result: inactive

Query: Under Cytochrome P450 2D6 (Homo sapiens): AC50 value of CCNc1ncc2nc(-c3ccccc3)c(=O)n(Cc3cccs3)c2n1 ?
Result: inactive

Query: Under Cytochrome P450 2D6 (Homo sapiens): AC50 value of COc1cccc2[nH]c3c(N4CC(C)CC(C)C4)ncnc3c12 (stereo unspecified) ?
Result: 2000 nM (active)
